Molecular target: SUMO activating enzyme (SAE) (Homo sapiens, UniProt Q9UBE0+Q9UBT2)
Sequence (Q9UBT2 whole entry): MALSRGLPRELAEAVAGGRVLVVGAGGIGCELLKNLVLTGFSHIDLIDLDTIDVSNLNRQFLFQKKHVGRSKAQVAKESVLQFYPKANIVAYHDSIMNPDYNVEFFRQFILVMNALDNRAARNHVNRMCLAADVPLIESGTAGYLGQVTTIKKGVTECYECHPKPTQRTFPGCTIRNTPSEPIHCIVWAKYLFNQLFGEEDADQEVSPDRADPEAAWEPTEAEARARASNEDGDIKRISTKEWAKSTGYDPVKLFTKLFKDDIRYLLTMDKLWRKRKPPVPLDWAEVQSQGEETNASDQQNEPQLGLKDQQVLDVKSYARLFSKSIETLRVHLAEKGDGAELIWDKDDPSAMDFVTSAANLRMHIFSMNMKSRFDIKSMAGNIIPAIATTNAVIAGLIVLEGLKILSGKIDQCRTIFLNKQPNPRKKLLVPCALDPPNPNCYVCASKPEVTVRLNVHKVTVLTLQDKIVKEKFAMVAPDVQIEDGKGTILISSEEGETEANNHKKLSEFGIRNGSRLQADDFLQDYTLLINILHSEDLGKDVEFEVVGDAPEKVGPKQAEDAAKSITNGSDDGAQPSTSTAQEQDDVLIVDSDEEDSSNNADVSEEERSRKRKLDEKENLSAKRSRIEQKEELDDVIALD
Sequence (Q9UBE0 whole entry): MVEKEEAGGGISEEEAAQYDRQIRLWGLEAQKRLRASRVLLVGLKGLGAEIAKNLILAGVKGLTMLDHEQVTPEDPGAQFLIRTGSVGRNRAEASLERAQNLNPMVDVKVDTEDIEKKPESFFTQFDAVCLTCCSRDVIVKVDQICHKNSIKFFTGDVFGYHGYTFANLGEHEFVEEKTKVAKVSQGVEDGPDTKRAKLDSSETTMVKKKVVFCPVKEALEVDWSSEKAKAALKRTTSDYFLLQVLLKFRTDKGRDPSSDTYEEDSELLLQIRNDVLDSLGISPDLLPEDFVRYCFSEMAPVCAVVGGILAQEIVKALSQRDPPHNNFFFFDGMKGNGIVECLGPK
Sequence (P63279 2-158 partner): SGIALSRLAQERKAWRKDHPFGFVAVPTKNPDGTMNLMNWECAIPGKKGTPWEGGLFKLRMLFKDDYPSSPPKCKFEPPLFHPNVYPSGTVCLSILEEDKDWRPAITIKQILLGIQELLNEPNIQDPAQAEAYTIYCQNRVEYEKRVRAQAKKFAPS
Assay: E1-E2 HTRF transthiolation assay with recombinantly purified SAE
quantity kind: pIC50
Kindly note that pIC50 refers to -log10 of the concentration in mol/L and answer with the value alone.

Name the reported pIC50 value associated with the compound `Cc1sc(C(=O)c2cncnc2N[C@@H]2C[C@H](COS(N)(=O)=O)[C@@H](O)C2)cc1[C@@H]1NCCc2ccc(Cl)cc21`
9.22
